# system_tested: panel of more than 300 wild-type and mutant kinases (313 kinase panel) (Homo sapiens)
# Sequence (P45984 whole entry, change not shown): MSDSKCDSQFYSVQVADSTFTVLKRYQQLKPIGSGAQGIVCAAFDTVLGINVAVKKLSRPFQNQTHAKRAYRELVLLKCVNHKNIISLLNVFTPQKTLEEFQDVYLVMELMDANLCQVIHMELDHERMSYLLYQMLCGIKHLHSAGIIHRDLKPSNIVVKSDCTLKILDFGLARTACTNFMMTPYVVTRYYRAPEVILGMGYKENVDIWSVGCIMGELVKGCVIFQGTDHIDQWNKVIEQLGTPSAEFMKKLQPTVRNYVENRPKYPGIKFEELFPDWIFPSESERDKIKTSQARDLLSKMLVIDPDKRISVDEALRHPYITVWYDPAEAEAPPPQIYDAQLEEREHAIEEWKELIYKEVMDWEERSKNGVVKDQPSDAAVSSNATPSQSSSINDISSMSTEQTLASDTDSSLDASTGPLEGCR
# test_details: Kinase profiling in a biochemical assay panel (mobility shift assays and ELISA), %-inhibition at 1 μM; selectivity entropy
# applied_conditions: kinase JNK2; compound at 1 μM
assay_endpoint: %-inhibition of JNK2 (%)
Give just the numeric value; % need not be written.

Look over these answered cases.
# molecule, %-inhibition of JNK2, %
measured = [
    ("Cc1cn(-c2cc(NC(=O)c3ccc(C)c(Nc4nccc(-c5cccnc5)n4)c3)cc(C(F)(F)F)c2)cn1 [nilotinib]", 9),
    ("CC(=O)Nc1cccc(-n2c(=O)n(C3CC3)c(=O)c3c(Nc4ccc(I)cc4F)n(C)c(=O)c(C)c32)c1 [trametinib]", -4.73),
]

Form: Entry = CC(C)(C)c1nc(-c2cccc(NS(=O)(=O)c3c(F)cccc3F)c2F)c(-c2ccnc(N)n2)s1 [dabrafenib] | System = panel of more than 300 wild-type and mutant kinases (313 kinase panel) (Homo sapiens) | %-inhibition of JNK2 = ____
-0.947

Data origin, for the record: paper PMC3961306
